Numbers sourced from PubChem BioAssay (NCI).

System: CCRF-CEM leukemia
METHOD: NCI tumour cell line growth inhibition, 48 h
PROPERTY MEASURED: TGI

## Input Query for CCRF-CEM leukemia: what TGI does the record show for COC(=O)C(=O)C(C(=O)C(=O)Nc1cccc(C(C)=O)c1)c1nc2ccc([N+](=O)[O-])cc2[nH]c1=O (stereo not given) ?
## Output > 100 µM

## Input Query for CCRF-CEM leukemia: what TGI does the record show for O=C(/C=C/c1ccco1)c1cc(F)c(Cl)cc1Cl ?
## Output 47.5 µM

## Input Query for CCRF-CEM leukemia: what TGI does the record show for Cc1sc2[nH]c(=O)oc(=O)c2c1C ?
## Output > 100 µM

## Input Query for CCRF-CEM leukemia: what TGI does the record show for C=CCC(N[C@@H](CO)c1ccccc1)c1cn(Cc2ccccc2Cl)c(=O)n(Cc2ccccc2Cl)c1=O (stereo not given in full) ?
## Output > 100 µM

## Input Query for CCRF-CEM leukemia: what TGI does the record show for Oc1ccc([Te]CCNCC[Te]c2ccc(O)cc2)cc1 ?
## Output > 100 µM

## Input Query for CCRF-CEM leukemia: what TGI does the record show for c1cnn(C23C4C5C6C4C2C6C53)c1 (stereo not given) ?
## Output > 100 µM

## Input Query for CCRF-CEM leukemia: what TGI does the record show for COC(=O)[C@@H](C)C[C@H](Cc1cn(C)c2ccccc12)NC(=O)c1csc([C@@H](C[C@H](C(C)C)N(C)C(=O)[C@@H](NC(=O)[C@H]2CCCCN2C)C(C)C)OC(C)=O)n1 ?
## Output > 16.7 µM

## Input Query for CCRF-CEM leukemia: what TGI does the record show for O=P1(Oc2ccccc2)N=P(c2ccccc2)(c2ccccc2)C=C(c2ccc(Cl)cc2)N1 (stereo not given) ?
## Output 26.6 µM

## Input Query for CCRF-CEM leukemia: what TGI does the record show for COc1ccc2c(c1)[n+]([O-])c(-c1ccc([N+](=O)[O-])cc1)c(N)[n+]2[O-] ?
## Output > 100 µM

## Input Query for CCRF-CEM leukemia: what TGI does the record show for Nc1ccccc1Nc1ccccc1C(=O)[O-].Nc1ccccc1Nc1ccccc1C(=O)[O-].[Zn+2] ?
## Output > 100 µM

## Input Query for CCRF-CEM leukemia: what TGI does the record show for COc1ccc(OC(C)=O)c2c1CCC=CC2=O ?
## Output 17.1 µM

## Input Query for CCRF-CEM leukemia: what TGI does the record show for CC(=O)Nc1ccc(NS(=O)(=O)c2ccc3nc(C)n(NS(=O)(=O)c4ccc(NC(C)=O)cc4)c(=O)c3c2)cc1 ?
## Output > 100 µM

## Input Query for CCRF-CEM leukemia: what TGI does the record show for C#CCNC(=O)N(CC#C)N=O ?
## Output > 100 µM

## Input Query for CCRF-CEM leukemia: what TGI does the record show for FC(F)(F)c1ccc(Cc2nc3cc4ccccc4cc3[nH]2)cc1 ?
## Output > 100 µM

## Input Query for CCRF-CEM leukemia: what TGI does the record show for C[C@]12CCc3nc(Nc4cccc(O)c4)sc3C1=CC[C@@H]1[C@@H]2CC[C@]2(C)/C(=N\NC(N)=S)CC[C@@H]12 ?
## Output > 100 µM

## Input Query for CCRF-CEM leukemia: what TGI does the record show for Cc1ccc(/C=N/n2c(Cc3ccccc3)n[nH]c2=O)cc1 ?
## Output > 100 µM

## Input Query for CCRF-CEM leukemia: what TGI does the record show for Cc1cc(Nc2ccc(OCc3ccccc3)cc2)nc2cc(O)ccc12 ?
## Output 20.7 µM

## Input Query for CCRF-CEM leukemia: what TGI does the record show for O=C1C(Cl)N(c2cccc(Cl)c2)C1c1c[nH]c2ccccc12 (stereo not given) ?
## Output > 100 µM

## Input Query for CCRF-CEM leukemia: what TGI does the record show for C1=NCCN2CCN(CCN=Cc3ccccc3OCc3cccc(n3)COc3ccccc31)CC2 ?
## Output > 50 µM

## Input Query for CCRF-CEM leukemia: what TGI does the record show for O=c1cc(-c2ccccc2)oc2ccc(OC/C(=N/O)c3ccccc3)cc12 ?
## Output > 50 µM

* * *

Can you tell me log10 TGI for the items I'm about to list?
Tested on: SN12C renal
METHOD: NCI tumour cell line growth inhibition, 48 h
Units before log transform: µM; reported quantity: TGI; transform: log10.

## Input Query for SN12C renal: what log10 TGI does the record show for CO/C=C/C(=O)c1cc2cnc3c(=N)cc(NC(=O)C(C)C)c([nH]1)c23 ?
## Output 0.21

## Input Query for SN12C renal: what log10 TGI does the record show for CC1=NN(c2nc(N)nc(CBr)n2)C(C)(C)C1 ?
## Output 1.31

## Input Query for SN12C renal: what log10 TGI does the record show for C[n+]1c(/C=C/c2c[nH]c3ccccc23)ccc2ccccc21 ?
## Output 1.32

## Input Query for SN12C renal: what log10 TGI does the record show for O=[N+]([O-])c1ccc2nc(Cl)n[n+]([O-])c2c1 ?
## Output 1.57

## Input Query for SN12C renal: what log10 TGI does the record show for CCN(CC)CCNc1ccc(C)c2sc3cc(Cl)ccc3c(=O)c12 ?
## Output 0.54

## Input Query for SN12C renal: what log10 TGI does the record show for CC(=O)OC(CN1CCN(c2ccccn2)CC1)Cn1sc2nc(C)cc(C)c2c1=O (stereo unspecified) ?
## Output 1.57

## Input Query for SN12C renal: what log10 TGI does the record show for CN(C)CCCC1c2ccccc2Oc2ccc(C(F)(F)F)cc21 (stereo unspecified) ?
## Output 1.45

* * *

Tested on: NCI-H522 lung
METHOD: NCI tumour cell line growth inhibition, 48 h
PROPERTY MEASURED: TGI

## Input So what's the measured TGI for this one? CC(C)(C)n1c(=O)n2n(c1=O)Cc1cccc3cccc(c13)C2
## Output 13.6 µM

## Input So what's the measured TGI for this one? C#CCNC(=O)N(CC#C)N=O
## Output 41.6 µM

## Input So what's the measured TGI for this one? O=C1c2cccnc2S(=O)(=O)N1c1ccc(Oc2ccccc2)cc1
## Output > 100 µM

## Input So what's the measured TGI for this one? CC[C@@H]1ON(C)[C@H]2CN(C)C(=O)[C@@H]12
## Output > 100 µM

## Input So what's the measured TGI for this one? O=C1CC[C@H](N2C(=O)c3cccc4c(Cc5ccc(CN6CCOCC6)cc5)ccc2c34)C(=O)N1
## Output > 100 µM

## Input So what's the measured TGI for this one? Nc1c(C(=O)c2ccc(-c3cccnc3)cc2)cnn1-c1ccc(F)cc1
## Output > 23.1 µM

## Input So what's the measured TGI for this one? COC(=O)/C(=N\NC(N)=O)C(C(=O)C(=O)Nc1ccccc1OC)c1nc2ccc([N+](=O)[O-])cc2[nH]c1=O (stereo not given)
## Output > 100 µM

## Input So what's the measured TGI for this one? O=C1C(C(O)(C(F)(F)Cl)C(F)(F)Cl)CCCC1C(O)(C(F)(F)Cl)C(F)(F)Cl (stereo not given)
## Output > 10 µM

## Input So what's the measured TGI for this one? NC(=O)C(=O)c1ncn(Cc2ccccc2)c1N
## Output > 100 µM

## Input So what's the measured TGI for this one? c1ccc2c(CN3CCN(Cc4c[nH]c5ccccc45)CC3)c[nH]c2c1
## Output 31.3 µM

* * *

Can you tell me TGI for the items I'm about to list?
Tested on: EKVX NSCLC
METHOD: NCI tumour cell line growth inhibition, 48 h
Field: numeric (nM). Do not append units.

## Input So what's the measured TGI for this one? CCN(CC)CC(C)(C)C(=O)/C=C/c1cccc(/C=C/C(=O)C(C)(C)CN(CC)CC)c1
## Output 2530

## Input So what's the measured TGI for this one? OC(c1cc(-c2cccc(Cl)c2)nc2ccccc12)C1CCCCN1 (stereo not given)
## Output 2940

* * *

Can you tell me TGI for the items I'm about to list?
Test system: SN12C renal
METHOD: NCI tumour cell line growth inhibition, 48 h

## Input Query for SN12C renal: what TGI does the record show for CCN(CC)CC(C)(C)C(=O)/C=C/c1cccc(/C=C/C(=O)C(C)(C)CN(CC)CC)c1 ?
## Output 1.04 µM

## Input Query for SN12C renal: what TGI does the record show for Cc1ccc(Cl)cc1Nc1nc(C(F)(F)F)ccc1C(=O)N/N=C/c1cccnc1 ?
## Output 21.9 µM

## Input Query for SN12C renal: what TGI does the record show for COC(=O)C(=O)C(C(=O)C(=O)Nc1cccc(C(C)=O)c1)c1nc2ccc([N+](=O)[O-])cc2[nH]c1=O (stereo not drawn) ?
## Output > 100 µM

## Input Query for SN12C renal: what TGI does the record show for O=C(c1ccccc1)c1ccc(N2C(=O)/C(=C/Cc3ccco3)N=C2c2ccccc2)c(N2C(=O)/C(=C/Cc3ccco3)N=C2c2ccccc2)c1 ?
## Output > 100 µM

## Input Query for SN12C renal: what TGI does the record show for COc1nc2ccc(COc3ccc(C(=O)NC(CCC(=O)O)C(=O)O)cc3)cc2nc1OC (stereo not drawn) ?
## Output > 10 µM

## Input Query for SN12C renal: what TGI does the record show for COc1cc(/C=C2\C[C@H]3[C@@H]4CC=C5C[C@@H](O)CC[C@]5(C)[C@H]4CC[C@]3(C)[C@H]2O)ccc1OCCN1CCCC1 ?
## Output 17.9 µM

## Input Query for SN12C renal: what TGI does the record show for Cc1ccc(NC(=O)c2ccc(CN3CCN(C)CC3)cc2)cc1Nc1nccc(-c2cccnc2)n1 ?
## Output > 100 µM

## Input Query for SN12C renal: what TGI does the record show for COc1cc(C(=O)/C=C/c2ccc(OCCSCCCCCCCCCCSCCOc3ccc(/C=C/C(=O)c4cc(OC)c(OC)c(OC)c4)cc3)cc2)cc(OC)c1OC ?
## Output > 100 µM
